Tested on: Aedes aegypti larvae
Assay: larval motility relative to same well at 0 h (fraction); higher = more motile (less active compound), active = 0.4 or less
Details: 10 µM; 2 h

MOL SMILES	larval motility
Fc1ccc(-n2cc(Cn3c(-c4cccc(F)c4)nc4ccccc43)nn2)cc1	0.761
C[C@@H](O)[C@H](N)C(=O)NS(=O)(=O)c1cccc(-c2ccc3[nH]ncc3c2)c1	0.665
CC(C)(C)c1ccc(OCCn2nc(C(=O)O)c3ccccc3c2=O)cc1	2.82
O=C(NNC(=S)Nc1ccc(Cl)cc1)c1ccncc1	0.695
CC(C)Oc1ccc(-n2cnc3cc(/C=C\c4ccc(C(C)(C)O)cc4)ccc32)cc1	0.656

---

Test system: Aedes aegypti larvae
Assay: larval motility relative to same well at 0 h (fraction); higher = more motile (less active compound), active = 0.4 or less
Settings: 10 µM; 2 h
Note to self: class = bucket of larval motility, per bin 0 = under 0.7, bin 1 = from 0.7 up to 0.9, bin 2 = 0.9 and over

COMPOUND	LABEL CLASS
CN(Cc1ccc(C(C)(C)C)cc1)Cc1cccc2ccccc12	bin 0
C=C[C@]1(C)C[C@@H](OC(=O)CS[C@@H]2C[C@H]3CC[C@@H](C2)N3C)[C@]2(C)[C@H](C)CC[C@]3(CCC(=O)[C@H]32)[C@@H](C)[C@@H]1O	bin 0
Nc1nc(-c2ccccc2)nc2[nH]nc(Nc3ccc(C(F)(F)F)cc3)c12	bin 1
O=C(Nc1ccc(F)cc1)c1nn(-c2ccccc2)c(=O)cc1Cl	bin 2
CC(=O)N[C@H](C)C(=O)N[C@H](Cc1ccccc1)C(=O)O	bin 0
CCOCc1nc2c(N)nc3ccccc3c2n1CC(C)(C)O	bin 2
COC(=O)Nc1nc2cc(S(=O)c3ccccc3)ccc2[nH]1 (stereo not given)	bin 1
c1cc(CN2CCCNCCNCCCNCC2)ccc1CN1CCCNCCNCCCNCC1	bin 2
Clc1cccc(-c2nnc(-c3ccccc3)o2)c1	bin 0
Nc1nc2c(Cc3cccnc3)c[nH]c2c(=O)[nH]1	bin 1
C[C@@H](c1nc(-c2ccc(C#N)cc2)cs1)[C@](O)(Cn1cncn1)c1ccc(F)cc1F	bin 1
N[C@H](CCC(=O)N[C@@H](Cc1c[nH]c2ccccc12)C(=O)O)C(=O)O	bin 2
O=C(CP(=O)(O)O)NCCc1cccc(Oc2ccccc2)c1	bin 2
CCOc1noc2cc(OCCC3CCN(c4ccc(C)nn4)CC3)ccc12	bin 1
CC(C)=CCC/C(C)=C/CNCCNC1C2CC3CC(C2)CC1C3 (stereo not given)	bin 1

---

Tested on: Aedes aegypti larvae
Experiment: larval motility relative to same well at 0 h (fraction); higher = more motile (less active compound), active = 0.4 or less
Conditions: 10 µM; 24 h
Give rule met when the value for larval motility is at least 0.7. Give rule not met when it is less.

COMPOUND	MEASURED ON	LABEL CLASS
CC[N+]1(C/C2=C/CCCCCC2)CCC(NC(=O)C2c3cc(Cl)ccc3Oc3ccc(Cl)cc32)CC1 (centres undefined)	Aedes aegypti larvae	rule met
Nc1nc(O)c2ncn(COC(CO)CO)c2n1	Aedes aegypti larvae	rule met
CCc1cc(CCC(=O)Nc2ccccc2O)c(=O)[nH]c1C	Aedes aegypti larvae	rule met
COc1c(NC(=O)[C@H]2CC[C@@H](COc3ccc([N+](=O)[O-])cc3)CC2)c(F)cc2c(=O)c(C(=O)O)cn(C3CC3)c12	Aedes aegypti larvae	rule met
Nc1nc(C(F)(F)F)cc2c1[nH]c(=O)n2Cc1ccccc1	Aedes aegypti larvae	rule not met
O=C(CP(=O)(O)O)NCCc1cccc(Oc2ccccc2)c1	Aedes aegypti larvae	rule met
COc1ccc(SCC(=O)N2c3ccccc3Sc3ccccc32)cc1	Aedes aegypti larvae	rule met
CCOc1ccc(C(=O)NCCc2ccccc2)cc1	Aedes aegypti larvae	rule met
O=C(CCc1ccc2c(c1)OCO2)NCc1ccc(-c2ccccc2F)cc1	Aedes aegypti larvae	rule not met
O=C(O)CCNC(=O)c1ccccc1	Aedes aegypti larvae	rule met
c1cc(CN2CCCNCCNCCCNCC2)ccc1CN1CCCNCCNCCCNCC1	Aedes aegypti larvae	rule met
CCC(C)(C)c1ccc(CC(C)CN2C[C@@H](C)O[C@@H](C)C2)cc1 (some centres undefined)	Aedes aegypti larvae	rule met
CCOCc1nc2c(N)nc3ccccc3c2n1CC(C)(C)O	Aedes aegypti larvae	rule met
COc1cc(C)c2c(Oc3cccc(C(F)(F)F)c3)c(OC)cc(NC(C)CCCN)c2n1 (centres undefined)	Aedes aegypti larvae	rule not met
NCCCc1ccccc1C(=O)Nc1ncc([N+](=O)O)s1	Aedes aegypti larvae	rule not met
Oc1ccc(NCc2ccccc2OCc2ccccc2)cc1	Aedes aegypti larvae	rule met
CCOC(=O)N[C@@H]1CC[C@@H]2[C@@H](C1)C[C@H]1C(=O)O[C@H](C)[C@H]1[C@H]2/C=C/c1ccc(-c2cccc(F)c2)cn1	Aedes aegypti larvae	rule not met
CC(=O)N1CCN(c2ccc(OCC3COC(Cn4ccnc4)(c4ccc(Cl)cc4Cl)O3)cc2)CC1 (centres undefined)	Aedes aegypti larvae	rule met
CC1=C(/C=C/C(C)=C/C=C/C(C)=C/C(=O)Nc2ccc(O)cc2)C(C)(C)CCC1	Aedes aegypti larvae	rule not met
CCc1cc(Cc2cnc(N)nc2N)cc2c1N(C)CCC2C (centres undefined)	Aedes aegypti larvae	rule met
CC[C@H](NC(=O)[C@H](C)NC)C(=O)N1C[C@@H](O)C[C@H]1Cc1c(-c2[nH]c3cc(F)ccc3c2C[C@@H]2C[C@H](O)CN2C(=O)[C@H](CC)NC(=O)[C@H](C)NC)[nH]c2cc(F)ccc12	Aedes aegypti larvae	rule met
O=C(NO)C1(CS(=O)(=O)c2ccc(Oc3ccc(Cl)cc3)cc2)CCOCC1	Aedes aegypti larvae	rule met
CC(C)(C)c1ccc(C(Cn2cccc(C(F)(F)F)c2=O)NC2Cc3ccccc3C2)cc1 (centres undefined)	Aedes aegypti larvae	rule met
CC(C)(C)c1cc(C(=O)/C(C#N)=N/Nc2cccc(Cl)c2)no1	Aedes aegypti larvae	rule met
CCCCc1ccc(-c2cc(C(=O)O)cc(-c3ccc(Cl)cc3)n2)cc1	Aedes aegypti larvae	rule not met
Cc1onc(-c2ccccc2)c1-c1ccc(S(N)(=O)=O)cc1	Aedes aegypti larvae	rule not met
COc1cc(NCc2ccc3nc(N)nc(N)c3c2C)cc(OC)c1OC	Aedes aegypti larvae	rule not met
Fc1ccc2c(/C=C/c3nnn[nH]3)c[nH]c2c1	Aedes aegypti larvae	rule met
CCOC(=O)/C=C/[C@H](C[C@@H]1CCNC1=O)NC(=O)[C@H](CC)n1cccc(NC(=O)c2cc(C)on2)c1=O	Aedes aegypti larvae	rule met
CC(C)(C)c1cc(CCC(=O)N2CCC2)cc(C(C)(C)C)c1O	Aedes aegypti larvae	rule met
COC(=O)Nc1nc2cc(Sc3ccccc3)ccc2[nH]1	Aedes aegypti larvae	rule not met
C[C@H](Cn1cnc2c(N)ncnc21)OCP(=O)(O)O	Aedes aegypti larvae	rule met
Nc1nc(=O)c(Br)c(-c2cccc(Cl)c2)[nH]1	Aedes aegypti larvae	rule met
Cc1cc(C)n2nc(C(=O)NS(=O)(=O)c3c(C)cccc3OC(F)(F)F)nc2n1	Aedes aegypti larvae	rule met
CC(C)(C)OC(=O)NCc1ccc(C(=O)N[C@H]2CCOC2=O)cc1	Aedes aegypti larvae	rule met
CN(C(=O)C1(c2ccc(Cl)cc2)CCC1)c1ccccc1	Aedes aegypti larvae	rule met
O=C(Nc1ccccc1)N(Cc1cc(Br)ccc1O)c1ccc(F)cc1	Aedes aegypti larvae	rule met
OC1O[C@H](CSc2ccc(F)cc2)[C@@H](O)[C@H]1O (some centres undefined)	Aedes aegypti larvae	rule met

---

Tested on: Aedes aegypti larvae
Experiment: larval motility relative to same well at 0 h (fraction); higher = more motile (less active compound), active = 0.4 or less
Conditions: 10 µM; 2 h
Outcomes: Yes (active), No (inactive)

MOLECULE	LABEL CLASS
CC[C@@H]1C(=O)OC[C@@H]1Cc1cncn1C	No
COc1cc(Cc2cnc(N)nc2N)cc(OC)c1OC	No
CC(Cc1ccccc1)C(=O)Nc1ccc(Cl)cc1C(=O)O (stereo unspecified)	No
Nc1nnnn1CCOc1c2[nH]c3ccc(Cl)cc3c2cc2c1[nH]c1ccc(Cl)cc12	No
O=C(Nc1nnc(-c2ccccc2)o1)c1ccc(F)cc1	No
COc1ccc2sc3c(c2c1)NC(C)CNC3=O (stereo unspecified)	No
CCCCCCCc1[nH]c2ccccc2c(=O)c1O	No
Cc1ncc([N+](=O)[O-])n1CC(O)CN1CCOCC1 (stereo unspecified)	No
O=C(Nc1ccc(N2CCN(C(=O)c3ccccc3)CC2)cc1)c1ccc2c(c1)OCO2	No
Nc1nc(NC2Cc3ccc(F)cc3C2)nc(N2CCCCC2)n1 (stereo unspecified)	No
CN(C)CC(=O)Nc1ccc2[nH]c(=O)c3ccccc3c2c1	Yes

---

Test system: Aedes aegypti larvae
Test: larval motility relative to same well at 0 h (fraction); higher = more motile (less active compound), active = 0.4 or less
Settings: 10 µM; 2 h
Item-by-item account of larval motility

COMPOUND	MEASURED ON	larval motility
CCc1oc2ccccc2c1C(=O)c1ccc(O)cc1	Aedes aegypti larvae	1.07
Oc1ccc2[nH]c(-c3ccccc3)nc2c1	Aedes aegypti larvae	0.633
COCCn1cnc2c(=O)[nH]c(Nc3ccccc3)nc21	Aedes aegypti larvae	0.921
CC(=O)N1c2ccccc2NC2=C(C(=O)CC(C)(C)C2)C1c1ccc(OCc2ccccc2)cc1 (stereo unspecified)	Aedes aegypti larvae	1.49
Cc1c[nH]c(=O)nc1NCc1ccccc1	Aedes aegypti larvae	1.16
O=C(O)c1sccc1S(=O)(=O)n1ccc2cc(Br)ccc21	Aedes aegypti larvae	0.657
CC(C)(C)c1ccc(C(=O)NC(=O)N2CCCc3ccccc32)cc1	Aedes aegypti larvae	0.973
CS(=O)(=O)c1ccc(Oc2ccc(Cl)cc2)cc1	Aedes aegypti larvae	0.907
CCOC(=O)Nc1cc(NC(C)CC(C)CN(CC)CC)c2nc(-c3ccccc3)c(-c3ccccc3)nc2n1 (stereo unspecified)	Aedes aegypti larvae	0.848
NC(=O)c1cnccn1	Aedes aegypti larvae	0.745
CC(C)Cn1c(=O)n(C)c(=O)c2c(-c3cncn3C)n(Cc3cccc4ccccc34)nc21	Aedes aegypti larvae	0.612
